Test Target: Sentrin-specific protease 6 (Homo sapiens)
Assay Overview: SENP6 protease inhibitors, primary screen, biochemical, luminescence, uHTS (AID 2599);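 further: plate controls were DMSO wells with enzyme for no effect and DMSO wells lacking enzyme for full effect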
Test Context: Recombinant SENP6 catalytic domain, aminoluciferin luminescence; at 10 µM
Out of some 330,000 compounds screened, about 5,800 (1.8%) were called active.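 How the source made its calls: active means inhibition above about 50% at the single tested dose (limit read from the data); inactive means the rest.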 This is one part of a sample in which actives are shown more often than they occur.
Thanks in advance; please answer with one of these: true (1) for active, false (0) for inactive

Chemical Smiles: Cc1ccnc2nc(C(=O)Nc3nnc(-c4ccccc4)o3)nn12
Classification: false (0)
--
Chemical Smiles: CC(C)c1nc(SCC(=O)NC(=O)NC(C)(C)C)n[nH]1
Classification: false (0)

Which outcome was entered for the molecule `c1ccc(-n2nc3ccccc3n2)cc1` in this test?
false (0)

Assay outcome for `CN(C)c1nnnn1-c1ccc(Cl)cc1` : what was it?
false (0)

# fetch the recorded call for `CC(=O)N(C1=C(Cl)C(=O)c2ccccc2C1=O)c1ccc(C(=O)O)cc1` here
true (1)

How was `Nc1ccc2nn(-c3ccc(Cl)cc3)nc2c1` classified in this test?
true (1)

---

Test Target: Sentrin-specific protease 6 (Homo sapiens)
Assay Overview: SENP6 protease inhibitors, primary screen, biochemical, luminescence, uHTS (AID 2599)
Test Context: Recombinant SENP6 catalytic domain, aminoluciferin luminescence; at 10 µM
Screen size: about 330,000 compounds; about 5,800 (1.8%) were called active.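 How the source made its calls: active means inhibition above about 50% at the single tested dose (limit read from the data); inactive means the rest.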 Shown is part of a subset that was picked to be rich in actives.
Choose the fitting class; nothing outside T = active, F = inactive is accepted.

A selection of reference data follows.
Compound: COc1cc(/C=C2\Oc3ccc(C#Cc4ccc(O)cc4)cc3C2=O)cc(OC)c1
Classification: F

Compound: COc1cc(C#Cc2ccc3cc(CCCO)oc(=O)c3c2)cc(OC)c1
Classification: T

Compound: CCCN(CCc1ccccc1)C1CCc2c(O)cccc2C1 (stereo unspecified)
Classification: F

Compound: Cc1ccc2cc3cc(C(=O)N4CCCCCC4)oc3nc2c1
Classification: T

Compound: O=C(Nc1nccs1)C1CCN(S(=O)(=O)c2ccc(Cl)c(C(F)(F)F)c2)CC1
Classification: F

With those in mind, consider the next compound.
Can you look up the reported call for `Cc1ccc2nc(N3CCN(C(=O)c4ccco4)CC3)sc2c1` for me?
F

---

Test Target: Sentrin-specific protease 6 (Homo sapiens) (UniProt Q9GZR1)
Sequence (Q9GZR1 628-1112 limits assumed): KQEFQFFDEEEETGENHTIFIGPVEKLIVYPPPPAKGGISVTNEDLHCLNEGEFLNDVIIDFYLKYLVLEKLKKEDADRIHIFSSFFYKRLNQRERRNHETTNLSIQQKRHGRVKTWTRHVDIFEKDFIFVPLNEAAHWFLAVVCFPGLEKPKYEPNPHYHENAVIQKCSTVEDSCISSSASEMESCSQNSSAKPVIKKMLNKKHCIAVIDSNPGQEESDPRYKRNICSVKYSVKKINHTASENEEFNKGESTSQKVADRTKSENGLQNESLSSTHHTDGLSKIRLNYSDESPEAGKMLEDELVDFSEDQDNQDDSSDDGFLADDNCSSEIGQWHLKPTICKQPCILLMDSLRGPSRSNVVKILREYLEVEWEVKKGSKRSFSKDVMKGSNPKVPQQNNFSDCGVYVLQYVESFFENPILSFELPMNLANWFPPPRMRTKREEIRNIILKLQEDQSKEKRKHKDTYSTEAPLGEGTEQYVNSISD
Assay Overview: SENP6 protease inhibitors, primary screen, biochemical, luminescence, uHTS (AID 2599)
Test Context: Recombinant SENP6 catalytic domain, aminoluciferin luminescence; at 10 µM
About 5,800 (1.8%) of roughly 330,000 compounds were called active.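 How the source made its calls: active means inhibition above about 50% at the single tested dose (limit read from the data); inactive means the rest.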 The sample as a whole holds a higher share of actives than the screen did.
Permitted responses: active, inactive

Per the records of this test, what outcome belongs to `Cc1cc(C(=O)N/N=C/c2ccc(N3CCOCC3)cc2)c(C)o1` ?
active

# fetch the recorded call for `CC(C)(C)NC(=O)Cn1c(SCC(=O)Nc2nccs2)nc2ccccc21` here
inactive

---

Test Target: Sentrin-specific protease 6 (Homo sapiens) (UniProt Q9GZR1)
Assay Overview: SENP6 protease inhibitors, primary screen, biochemical, luminescence, uHTS (AID 2599)
Test Context: Recombinant SENP6 catalytic domain, aminoluciferin luminescence; at 10 µM; active compounds read high
In all, about 330,000 compounds went through this assay and about 5,800 (1.8%) were called active. This excerpt belongs to a sample that is enriched for actives.
Endpoint Name: inhibition (%)
Report as a plain number; the unit % is understood.

For the compound shown here, `CCCN(CC(=O)Nc1ccccc1OC)C(=O)CCC(=O)c1ccc(F)cc1` , give the reported inhibition.
-2.28

---

Test Target: Sentrin-specific protease 6 (Homo sapiens)
Assay Overview: SENP6 protease inhibitors, primary screen, biochemical, luminescence, uHTS (AID 2599)
Test Context: Recombinant SENP6 catalytic domain, aminoluciferin luminescence; at 10 µM; active compounds read high
The campaign covered roughly 330,000 compounds. About 5,800 (1.8%) were called active. This excerpt belongs to a sample that is enriched for actives.
Attribute: inhibition
Express the result in % but write the number alone.

Query for Sentrin-specific protease 6 (Homo sapiens): what inhibition does the record show for O=C(NCC1CCCO1)c1ccc(S(=O)(=O)Nc2ccc(F)cc2)cc1 (stereo unspecified) ?
-0.148

---

Test Target: Sentrin-specific protease 6 (Homo sapiens) (UniProt Q9GZR1)
Assay Overview: SENP6 protease inhibitors, primary screen, biochemical, luminescence, uHTS (AID 2599)
Test Context: Recombinant SENP6 catalytic domain, aminoluciferin luminescence; at 10 µM; active compounds read high
Among all 330,000 compounds or so, about 5,800 (1.8%) were called active. The sample as a whole holds a higher share of actives than the screen did.
Endpoint Name: inhibition (%)
Express the result in % but write the number alone.

Any idea what inhibition was measured for COc1ccc(CCC(C)N2CCc3ccccc3C2)cc1 (configuration not stated) ?
-16.3

Name the recorded inhibition for `O=C(Cc1ccc(S(=O)(=O)N2CCOCC2)s1)NCCC(c1ccccc1)c1ccccc1` .
-9.6

# get_value(readout='inhibition', item= `CCOC(=O)C1CCN(C(=O)CN2C(=O)c3cccnc3Oc3ccc(C)cc32)CC1` )
-14.4

What measured inhibition goes with `O=C1N/C(=C/c2cccs2)C(=O)N1Cc1ccc(F)cc1` ?
-6.09

Which inhibition is listed for COc1ccc2c(C)cc(SCC(=O)NCC3CCCO3)nc2c1 (configuration not stated) ?
2.3

Data request, read-out inhibition, for COc1ccccc1C(=O)NCCC(=O)NC(C)CCc1ccccc1 (configuration not stated)
-4.44

---

Test Target: Sentrin-specific protease 6 (Homo sapiens) (UniProt Q9GZR1)
Assay Overview: SENP6 protease inhibitors, primary screen, biochemical, luminescence, uHTS (AID 2599);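 further: plate controls were DMSO wells with enzyme for no effect and DMSO wells lacking enzyme for full effect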
Test Context: Recombinant SENP6 catalytic domain, aminoluciferin luminescence; at 10 µM; active compounds read high
The campaign covered roughly 330,000 compounds. About 5,800 (1.8%) were called active. The entries come from a sample that favours actives as a whole.
Endpoint Name: inhibition (%)
Field format: number, assumed %, no unit text.

These solved cases illustrate the format of a correct answer.
Compound: COc1ccc([N+](=O)[O-])cc1N(CC(=O)Nc1ccccc1C(=O)N1CCOCC1)S(C)(=O)=O
inhibition [%]: -14.4

Compound: Cc1ccc(O)c(NC(=O)c2cc(-c3ccco3)on2)c1
inhibition [%]: 62.9

Compound: O=C(CN1CCCSc2ccccc21)N1CCN(S(=O)(=O)c2cccc(F)c2)CC1
inhibition [%]: -22.3

Compound: Cc1ccc(N2C(=O)C(NC(=O)c3c(F)cccc3F)(C(F)(F)F)C3=C2CC(C)(C)CC3=O)cc1 (stereo not given)
inhibition [%]: -5.98

Value lookup for inhibition; key = CCOc1cc(/C=C2\SC(N3CCCC(C)C3)=NC2=O)ccc1O (stereo not given)
11.9

Given the entry `COc1cc2c3c(c1)/C(=C1/SC(=S)NC1=O)C(=O)N3C(C)(C)C=C2C` , report its measured inhibition.
24.2

Give its inhibition value. Item: `CCOc1ncccc1C(=O)Nc1ccc(S(=O)(=O)Nc2nc(C)cc(C)n2)cc1`
-19.1

# input compound: `Cc1ccc(NC(=O)CSc2nc(=O)n(CCN(C)C)c3c2CCCC3)c(C)c1` ; wanted: its inhibition
-3.87

Recorded inhibition for `CCOc1ncccc1C(=O)N(C)CC(=O)Nc1ccc(F)cc1` , please?
-13.5

What inhibition value was documented for this compound, `Cc1nn(CC(=O)NC2CCCCC2)c(=O)c2cccn12` ?
9.49

---

Each item that follows carries a reported inhibition.
Test Target: Sentrin-specific protease 6 (Homo sapiens)
Assay Overview: SENP6 protease inhibitors, primary screen, biochemical, luminescence, uHTS (AID 2599);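 further: plate controls were DMSO wells with enzyme for no effect and DMSO wells lacking enzyme for full effect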
Test Context: Recombinant SENP6 catalytic domain, aminoluciferin luminescence; at 10 µM; active compounds read high
The campaign covered roughly 330,000 compounds. About 5,800 (1.8%) were called active. The entries come from a sample that favours actives as a whole.
Quick note: give the figure in %, leave out the unit.

The cases that follow already have their inhibition on record.
Molecule: CCN(CC)C(=O)CSc1ncnc2c1cnn2-c1ccccc1
Scale Unit: %
Reading: 22.4

Molecule: COC(=O)c1scc(C)c1NC(=O)CSc1ccc(Cl)cc1
Scale Unit: %
Reading: -3.94

Molecule: O=C(NCc1ccccc1CN1CCCC1)c1cccc(S(=O)(=O)Nc2ccc(F)cc2)c1
Scale Unit: %
Reading: 18.3

Molecule: O=C(COC(=O)CNC(=O)C1CCCCC1)NCc1ccccc1
Scale Unit: %
Reading: 4.4

Molecule: CN(C)C(CNC(=O)CCCOc1ccccc1)c1ccco1 (stereo unspecified)
Scale Unit: %
Reading: -5.38

Fill in the blank: the reported inhibition of CCN(CC)S(=O)(=O)c1ccc(N2CCOCC2)c(NC(=O)C2CSC3(C)CCC(=O)N23)c1 (stereo unspecified) is ____.
4.82

---

Test Target: Sentrin-specific protease 6 (Homo sapiens)
Assay Overview: SENP6 protease inhibitors, primary screen, biochemical, luminescence, uHTS (AID 2599);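 further: plate controls were DMSO wells with enzyme for no effect and DMSO wells lacking enzyme for full effect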
Test Context: Recombinant SENP6 catalytic domain, aminoluciferin luminescence; at 10 µM
The campaign covered roughly 330,000 compounds. About 5,800 (1.8%) were called active.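 Rule for the calls: active = inhibition above about 50% at the single tested dose (limit read from the data); inactive = the rest.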 The sample as a whole holds a higher share of actives than the screen did.
Reply using exactly one outcome from True = active, False = inactive

Molecule: Cc1ccc2cc(/C=N/Nc3ccc(C(=O)O)cc3)c(Cl)nc2c1
Classification: False
--
Molecule: O=C(O)c1ccc(N/N=C/c2ccc3ncccc3c2)cc1
Classification: True
--
Molecule: CC(=O)c1sc(NC(=O)c2ccc(C)cc2)nc1C
Classification: True
--
Molecule: CCCCCc1ccc(-c2cn(Cc3ccc4ccccc4c3)nn2)cc1
Classification: False
--
Molecule: CCCCCc1ccc(-c2ccc(OCC)cc2)nc1
Classification: False
--
Molecule: O=C(COC(=O)c1ccccn1)NNC(=O)c1ccc(Br)cc1
Classification: False
--
Molecule: CC(C)C(NS(=O)(=O)c1cccs1)C(=O)Nc1nc(C(C)(C)C)cs1 (stereo not drawn)
Classification: False
--
Molecule: CCOc1cc(/C=N/n2cnnc2)c(Br)cc1O
Classification: False

Record request — test call for `S=c1[nH]nc(-c2cc(-c3ccccc3)n[nH]2)n1/N=C/c1c2ccccc2cc2ccccc12`
False

Write down the call the test reported for this molecule. Item: `COC(=O)c1sc(NC(=S)NC(=O)c2ccc(C)cc2)nc1C`
False

Test call, this molecule: `Cc1ccc(C(=O)O/N=C(\N)c2ccccn2)cc1Cl`
True

Hi team, can someone confirm the assay call for CC1CCCC(C)N1C(=O)COC(=O)COc1ccccc1C#N (stereo not drawn) ?
False

Test call, this molecule: `O=C1CC(c2ccccc2)=NN1c1ccc([N+](=O)[O-])cc1`
True

Outcome? `CC(=O)N1CCN(C(=O)c2cccc(S(=O)(=O)Nc3ccc(C)cc3)c2)CC1`
False

How did this test come out for `CCN(CC)S(=O)(=O)c1ccc(C)c(NC(=O)COc2ccc(Br)cc2Cl)c1` ?
False

For `CCCCCc1ccc(-c2ccc(C(=O)O)cc2)nc1` , what call appears in the results of this test?
True

Give the logged outcome of this assay for the following molecule: `COCCCNC(=O)CN1CCN(Cc2ccccc2Cl)C1=O`
False
